# EXPERIMENT: chemical genetic growth profiling, strain panel (AID 1159580);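 note: tested at 20 µM; growth read once vehicle control cultures reached saturation at 30 °C; 1 = growth at the plate median or of vehicle wells; lower values mean less growth of the strain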
# PROTOCOL CONDITIONS: S. cerevisiae deletion strains, growth OD, locus YDL035C, strain GPR1, stronger effect = lower value
Out of some 5,500 compounds screened, about 2,000 (36%) were called active. Inconclusive results (about 18%) are left out. Some of the results follow.

COMPOUND	normalized growth
O=C(O)c1ccccc1C(=O)Nc1ccc(S(=O)(=O)Nc2nccs2)cc1	1.02 (inactive)
COc1cc2c(cc1O)C(Cc1ccc(O)cc1)N(C)CC2 (stereo not given)	1.05 (inactive)
COc1c2ccoc2nc2c(OC)c(OCC(O)C(C)(C)O)ccc12 (stereo not given)	0.992 (inactive)
CC(=O)O[C@H]1C[C@@H](OC(C)=O)C(C)(C)C2CC(=O)[C@]3(C)C(CC[C@@]4(C)[C@H](c5ccoc5)OC(=O)[C@H]5O[C@]543)[C@]21C (stereo not given in full)	0.982 (inactive)
CC(CN(C)C)CN1c2ccccc2CCc2ccccc21 (stereo not given)	1.01 (inactive)
Clc1ccc2c(c1)C(N1CCNCC1)=Nc1ccccc1O2	0.972 (inactive)
COc1cc2c(cc1/C=C/C(=O)c1cc(OC)c(OC)cc1OC)OCO2	1 (inactive)
CC1(C)C(=O)C=C[C@@]2(C)C1CC(=O)[C@@]1(C)C3=CC(=O)O[C@@H](c4ccoc4)[C@]3(C)CCC12 (stereo not given in full)	1.02 (inactive)
N[C@@H](Cc1cc(I)c(Oc2cc(I)c(O)c(I)c2)c(I)c1)C(=O)O	1.04 (inactive)
CCC(=O)c1ccc2c(c1)N(CC(C)N(C)C)c1ccccc1S2 (stereo not given)	0.979 (inactive)
OC1=Cc2c(O)cc(O)cc2OC1(O)c1ccc(O)c(O)c1 (stereo not given)	1.02 (inactive)
N[C@@H](Cc1cc(I)c(Oc2ccc(O)c(I)c2)c(I)c1)C(=O)O	1.01 (inactive)
COc1c2ccccc2nc2occc12	0.929 (inactive)
CCCCC[C@H](CC(=O)NO)C(=O)N[C@H](C(=O)N1CCC[C@H]1CO)C(C)C	0.989 (inactive)
NC(Cc1ccc(F)cc1)C(=O)O (stereo not given)	1.01 (inactive)
COc1cc2c(cc1-c1cc3cc4ccoc4cc3oc1=O)OCO2	1.01 (inactive)
CO[C@]12C[C@@H](COC(=O)c3cncc(Br)c3)CN(C)[C@@H]1Cc1cn(C)c3cccc2c13	0.99 (inactive)
CN[C@@H]1[C@H](OC2[C@H](O[C@H]3[C@H](O)[C@@H](O)[C@H](N=C(N)N)[C@@H](O)[C@@H]3N=C(N)N)O[C@@H](C)[C@]2(O)C=O)O[C@@H](CO)[C@H](O)[C@H]1O (stereo not given in full)	1.01 (inactive)
COc1cc([C@H]2Oc3cc([C@H]4Oc5cc(O)cc(O)c5C(=O)[C@@H]4O)ccc3O[C@@H]2CO)ccc1O	0.987 (inactive)
CC(CN1c2ccccc2Sc2ccccc21)N(C)C (stereo not given)	0.966 (inactive)

###

normalized growth: recorded values
# EXPERIMENT: chemical genetic growth profiling, strain panel (AID 1159580);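 note: tested at 20 µM; growth read once vehicle control cultures reached saturation at 30 °C; 1 = growth at the plate median or of vehicle wells; lower values mean less growth of the strain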
# PROTOCOL CONDITIONS: S. cerevisiae deletion strains, growth OD, locus YOL006C, strain TOP1, stronger effect = lower value
In all, about 5,500 compounds went through this assay and about 2,000 (36%) were called active. About 18% were inconclusive and are not listed. Some of the results follow.
OBSERVATION TYPE: normalized growth

COMPOUND	MEAS VALUE
CN(C(=O)CN(CCO)CC(=O)N(C)C(C)(C)Cc1ccccc1)C(C)(C)Cc1ccccc1	1.05
O=C(O)Cc1cc(I)c(Oc2cc(I)c(O)c(I)c2)c(I)c1	0.862
CC(=O)Nc1nnc(S(N)(=O)=O)s1	0.141
CC1(C)C(O)CC(O)C2(C)C1CC(O)C1(C)C2CCC2(C)C(c3ccoc3)OC(=O)C3OC321 (configuration not stated)	1.13
Cc1cccc(Nc2ccncc2S(=O)(=O)NC(=O)NC(C)C)c1	1
Cc1ccc(S(=O)(=O)Nc2ccc(C)c([N+](=O)[O-])c2)cc1	1.02
CC(CCC(=O)O)[C@H]1CCC2C3C(C[C@H](O)[C@@]21C)[C@@]1(C)CC[C@@H](O)C[C@H]1C[C@H]3O (some centres not stated)	1.07
OC1(c2ccc(Cl)cc2)CSc2nc3cc(C(F)(F)F)ccc3n21 (configuration not stated)	1.08
O=c1cc(-c2cc(O)c(O)c(O)c2)oc2cc(O)cc(O)c12	1.08
Clc1ccc(OCCOc2ccc(Cl)cc2)cc1	0.937
Cc1cc(NS(=O)(=O)c2ccc(NS(=O)(=O)c3cc(C)c(Cl)cc3C)cc2)no1	0.985
O=C(O)Cc1ccccc1I	1.11
COC(=O)CCCOc1ccc(Cl)cc1Cl	0.971
Cc1cc(NS(=O)(=O)c2ccc(NS(=O)(=O)c3ccc(Cl)cc3)cc2)no1	1.06
C/C(=N/Nc1c(Cl)cc(Cl)cc1Cl)c1cc(F)ccc1OC(=O)c1ccccc1F	1.06
COC(=O)CCC(C)[C@H]1CCC2C3C(C[C@H](O)[C@@]21C)[C@@]1(C)CC[C@@H](O)C[C@H]1C[C@H]3O (some centres not stated)	0.974
N[C@@H](Cc1cc(I)c(Oc2ccc(O)c(I)c2)c(I)c1)C(=O)O	0.992
CCN(CCCc1ccccc1)CCCc1ccccc1	0.909
O=C(O)CCCOc1ccc(Cl)cc1Cl	1.04
C=C1C2CCC3(C)C(c4ccoc4)OC(=O)CC13OC1CC(OC(C)=O)C(C)(C)C(CC(=O)OC)C12C (configuration not stated)	0.984
N[C@H](Cc1cc(I)c(Oc2ccc(O)c(I)c2)c(I)c1)C(=O)O	0.942
N[C@@H](Cc1cc(I)c(Oc2cc(I)c(O)c(I)c2)c(I)c1)C(=O)O	1.02
